Structures can show the parent of a compound that is named as a salt.
Reported metric: melting point

Example results:
Compound	Reading
COC(=O)c1c(O)cccc1OCCCCNC(=O)CCc1ccc(N2CC(=O)NS2(=O)=O)c(O)c1 [Example 110]	85 to 90 °C
O=C(O)COc1ccc(N2CC(=O)NS2(=O)=O)c(O)c1 [Example 296]	185 to 188 °C
O=C1CN(c2ccc(S(=O)(=O)c3ccccc3)cc2O)S(=O)(=O)N1 [Example 318]	126 to 180 °C
O=C1CN(c2ccc(OCCc3ccccc3)cc2O)S(=O)(=O)N1 [Example 55]	65 to 70 °C

Turning now to a further record.
Give the measured melting point of O=C1CN(c2ccc(-c3ccoc3)cc2O)S(=O)(=O)N1 (as salt: potassium) [Example 272] .
230 to 235 °C

Sourced from patent US8084448B2
